assay: Liver microsome stability, humans; format: in vitro ADME; conditions: human; Humans liver microsomes, NADPH, 37° C.

molecule: COc1ccc(-c2c(-c3ccc(C#N)c(F)c3)nc(N3CCC(N)CC3)n(C)c2=O)cc1F [CC-90011, reference compound]
half-life: 1.57 h

molecule: CC(C)(O)Cn1nc(F)c2cc(-c3c(C#N)cc(N4CCC(N)CC4)nc3-c3ccc(C#N)c(F)c3)c(F)cc21
half-life: > 2.42 h

molecule: CC(C)(O)Cn1ncc2cc(-c3c(C#N)cc(N4CCC(N)CC4)nc3-c3ccc(C#N)c(F)c3)c(F)cc21
half-life: > 2.42 h

----------
Each entry below carries its recorded AUC(0-t).
test: Pharmacokinetics of oral administration of rats; type: in vivo; conditions: male, rat, SD rats, p.o. 5.0 mg/kg, plasma

molecule: CN1C(=O)Cc2cc(-c3c(C#N)cc(N4CCC(N)CC4)nc3-c3ccc(C#N)c(F)c3)ccc21
AUC(0-t) (ng·h/mL): 591
--
molecule: COc1ccc(-c2c(C#N)cc(N3CCCNCC3)nc2-c2ccc(C#N)c(F)c2)cc1F
AUC(0-t) (ng·h/mL): 1550
--
molecule: CC(C)(O)Cn1nc(F)c2cc(-c3c(C#N)cc(N4CCC(N)CC4)nc3-c3ccc(C#N)c(F)c3)c(F)cc21
AUC(0-t) (ng·h/mL): 769
--
molecule: COc1ccc(-c2c(-c3ccc(C#N)c(F)c3)nc(N3CCC(N)CC3)n(C)c2=O)cc1F [CC-90011, reference compound]
AUC(0-t) (ng·h/mL): 356
--
molecule: COc1ccc(-c2c(C#N)cc(N3CCC(N)CC3)nc2-c2ccc(C#N)c(F)c2)cc1F
AUC(0-t) (ng·h/mL): 1300
--
molecule: CC(C)(O)Cn1ncc2cc(-c3c(C#N)cc(N4CCCNCC4)nc3-c3ccc(C#N)c(F)c3)c(F)cc21
AUC(0-t) (ng·h/mL): 721
--
molecule: Cn1ncc2cc(-c3c(C#N)cc(N4CCC(N)CC4)nc3-c3ccc(C#N)c(F)c3)ccc21
AUC(0-t) (ng·h/mL): 712

----------
assay: Pharmacokinetics of oral administration of mice under different solvent conditions; format: in vivo; details: male, Balb/c, mouse, plasma, 5 mg/kg, p.o. 5.0 mg/kg, solvent 5% DMSO + 10% Solutol + 85% Saline
Measured AUC(0-t), listed per entry for reference.

compound: COc1ccc(-c2c(-c3ccc(C#N)c(F)c3)nc(N3CCC(N)CC3)n(C)c2=O)cc1F [CC-90011, reference compound]
unitOfMeasurement: ng·h/mL
AUC(0-t): 871
//
compound: CC(C)(O)Cn1ncc2cc(-c3c(C#N)cc(N4CCC(N)CC4)nc3-c3ccc(C#N)c(F)c3)c(F)cc21 [Compound 16]
unitOfMeasurement: ng·h/mL
AUC(0-t): 2420

----------
assay: Pharmacokinetics of oral and intravenous administration of rats; format: in vivo; conditions: male, rat, plasma, po; SD rats, p.o. 5.0 mg/kg, 0.5% sodium methylcellulose aqueous solution

compound: CC(C)(O)Cn1ncc2cc(-c3c(C#N)cc(N4CCC(N)CC4)nc3-c3ccc(C#N)c(F)c3)c(F)cc21 [Compound 16]
unitOfMeasurement: h
half-life: 4.73

compound: COc1ccc(-c2c(-c3ccc(C#N)c(F)c3)nc(N3CCC(N)CC3)n(C)c2=O)cc1F [CC-90011, reference compound]
unitOfMeasurement: h
half-life: 4.15

Sourced from patent US20250163016A1
